# pIC50 against Androgen receptor (Homo sapiens, UniProt P10275), merged from multiple literature sources
- targetSystem: Androgen receptor (Homo sapiens, UniProt P10275)
- Sequence (P10275 whole entry): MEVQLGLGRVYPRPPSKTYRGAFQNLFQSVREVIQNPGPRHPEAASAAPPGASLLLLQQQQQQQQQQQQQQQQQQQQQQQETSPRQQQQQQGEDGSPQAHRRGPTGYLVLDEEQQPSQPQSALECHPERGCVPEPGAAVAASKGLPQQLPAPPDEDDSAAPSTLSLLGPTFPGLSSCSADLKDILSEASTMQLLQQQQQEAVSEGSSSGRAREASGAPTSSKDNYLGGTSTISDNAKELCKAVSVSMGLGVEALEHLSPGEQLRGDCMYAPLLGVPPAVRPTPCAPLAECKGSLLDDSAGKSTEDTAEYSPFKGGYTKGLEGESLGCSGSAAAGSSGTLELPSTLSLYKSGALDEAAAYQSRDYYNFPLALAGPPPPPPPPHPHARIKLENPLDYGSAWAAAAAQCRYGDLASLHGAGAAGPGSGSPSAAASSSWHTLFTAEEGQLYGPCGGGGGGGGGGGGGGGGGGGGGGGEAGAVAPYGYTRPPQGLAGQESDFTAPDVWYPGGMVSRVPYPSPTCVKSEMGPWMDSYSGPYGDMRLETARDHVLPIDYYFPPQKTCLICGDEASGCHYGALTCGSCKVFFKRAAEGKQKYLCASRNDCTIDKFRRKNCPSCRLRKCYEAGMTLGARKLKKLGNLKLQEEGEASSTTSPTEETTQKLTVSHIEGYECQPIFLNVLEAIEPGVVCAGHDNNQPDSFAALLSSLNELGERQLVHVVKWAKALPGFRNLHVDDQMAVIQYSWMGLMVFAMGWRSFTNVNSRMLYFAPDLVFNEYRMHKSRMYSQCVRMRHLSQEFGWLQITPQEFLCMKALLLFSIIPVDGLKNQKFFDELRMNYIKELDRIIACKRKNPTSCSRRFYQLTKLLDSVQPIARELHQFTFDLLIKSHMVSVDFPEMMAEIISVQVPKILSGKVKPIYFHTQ
pIC50: −log10 of the molar value.
measurementType: pIC50

Field: example entries. Status: answers known.
compound	targetSystem	pIC50
Nc1ccccc1Cc1n[nH]c(=O)c2ccccc12	Androgen receptor (Homo sapiens, UniProt P10275)	4.34
Cc1ccncc1NC(=O)N1C[C@H](C)N(c2ccc(C#N)c(C(F)(F)F)c2)C[C@H]1C (racemic)	Androgen receptor (Homo sapiens, UniProt P10275)	6.48
CC1=CC(C)(C)Nc2ccc3c(c21)C(c1cccc(Br)c1)Oc1ccccc1-3 (centres undefined)	Androgen receptor (Homo sapiens, UniProt P10275)	6.40

[a] CC1=CC(C)(C)Nc2ccc3c(c21)C(c1cccc(C(F)(F)F)c1)Oc1ccccc1-3 (centres undefined)
[b] O=[N+]([O-])c1ccc(C2=NOC3CCCCCC23)cc1C(F)(F)F (racemic)
[c] Fc1ccc(C2=NOC3CCCC23)c(C(F)(F)F)c1 (cis isomer; cis)
Sort the compounds on pIC50; start with the lowest figure. Returns: the labels arranged in the requested order.
c, a, b
(c: 5.81, a: 6.50, b: 6.98)
